Data origin, for the record: paper PMC8161026

- Tested on: DU-145
- assay summary: cells
- recorded conditions: Homo sapiens, DU-145, 48 h, read-out: LC50
// values below are reported CC50
A number alone suffices; assume µM.

| compound | units | CC50 |
| --- | --- | --- |
| O=C(O)C(Cc1ccccc1)N1C(=O)/C(=C/C(Cl)=C/c2ccc([N+](=O)[O-])cc2)SC1=S (centres unmarked) | µM | 11.7 |
| O=C1NC(=S)S/C1=C\C(Cl)=C\c1ccc([N+](=O)[O-])cc1 | µM | 28.4 |
| O=C(O)CCN1C(=O)/C(=C/C(Cl)=C/c2ccc([N+](=O)[O-])cc2)SC1=S | µM | 52.3 |

Now for another entry.
Query: Find the measured CC50 of `O=C1/C(=C/C(Cl)=C/c2ccc([N+](=O)[O-])cc2)SC(=S)N1c1ccc(O)cc1` and report it.
Result: 50.1

---

- Tested on: CNS Cancer subpanel
- assay summary: cells
- recorded conditions: Homo sapiens, read-out: MG_MID, LC50
quantity: CC50 (µM)
A number alone suffices; assume µM.

Query: Find the measured CC50 of `O=C1NC(=S)S/C1=C\C(Cl)=C\c1ccc([N+](=O)[O-])cc1` and report it.
Result: 45.4

Query: Find the measured CC50 of O=C(O)C(Cc1ccccc1)N1C(=O)/C(=C/C(Cl)=C/c2ccc([N+](=O)[O-])cc2)SC1=S (centres unmarked) and report it.
Result: 7.21

Query: Find the measured CC50 of `O=C1/C(=C/C(Cl)=C/c2ccc([N+](=O)[O-])cc2)SC(=S)N1c1ccc(O)cc1` and report it.
Result: 77.4

Query: Find the measured CC50 of `O=C(O)CCN1C(=O)/C(=C/C(Cl)=C/c2ccc([N+](=O)[O-])cc2)SC1=S` and report it.
Result: 84.9

Query: Find the measured CC50 of `O=C1/C(=C/C(Cl)=C/c2ccc([N+](=O)[O-])cc2)SC(=S)N1/N=C\C(Cl)=C\c1ccc([N+](=O)[O-])cc1` and report it.
Result: 88.6

---

- Tested on: SK-MEL-5
- assay summary: NCI DTP 60 cell line screen, SRB
- recorded conditions: Homo sapiens, SK-MEL-5, 48 h
quantity: GI50 (nM)
A number alone suffices; assume nM.

Query: Find the measured GI50 of O=C(O)C(Cc1ccccc1)N1C(=O)/C(=C/C(Cl)=C/c2ccc([N+](=O)[O-])cc2)SC1=S (centres unmarked) [Compound 2j] and report it.
Result: 1680

Query: Find the measured GI50 of O=C1/C(=C/C(Cl)=C/c2ccc([N+](=O)[O-])cc2)SC(=S)N1/N=C\C(Cl)=C\c1ccc([N+](=O)[O-])cc1 [Compound 2c] and report it.
Result: 19400

Query: Find the measured GI50 of O=C1NC(=S)S/C1=C\C(Cl)=C\c1ccc([N+](=O)[O-])cc1 [Compound 2b] and report it.
Result: 3820

Query: Find the measured GI50 of O=C(O)CCN1C(=O)/C(=C/C(Cl)=C/c2ccc([N+](=O)[O-])cc2)SC1=S [Compound 2h] and report it.
Result: 19.3

---

- Test system: HOP-62
- assay summary: cells
- recorded conditions: Homo sapiens, HOP-62, 48 h, read-out: LC50
quantity: CC50

Below: 4 compounds and their reported CC50.
| compound | CC50 |
| --- | --- |
| O=C1/C(=C/C(Cl)=C/c2ccc([N+](=O)[O-])cc2)SC(=S)N1/N=C\C(Cl)=C\c1ccc([N+](=O)[O-])cc1 | 91.9 µM |
| O=C1NC(=S)S/C1=C\C(Cl)=C\c1ccc([N+](=O)[O-])cc1 | > 50 µM |
| O=C1/C(=C/C(Cl)=C/c2ccc([N+](=O)[O-])cc2)SC(=S)N1c1ccc(O)cc1 | 11.6 µM |
| O=C(O)CCN1C(=O)/C(=C/C(Cl)=C/c2ccc([N+](=O)[O-])cc2)SC1=S | 52.8 µM |

Query: Find the measured CC50 of O=C(O)C(Cc1ccccc1)N1C(=O)/C(=C/C(Cl)=C/c2ccc([N+](=O)[O-])cc2)SC1=S (centres unmarked) and report it.
Result: > 100 µM

---

- Test system: OVCAR-3
- assay summary: NCI DTP 60 cell line screen, SRB
- recorded conditions: OVCAR-3 (Ovarian Cancer), 48 h, SRB
quantity: TGI (µM)
A number alone suffices; assume µM.

Below: 3 molecules and their reported TGI.
| molecule | units | reading |
| --- | --- | --- |
| O=C1/C(=C/C(Cl)=C/c2ccc([N+](=O)[O-])cc2)SC(=S)N1/N=C\C(Cl)=C\c1ccc([N+](=O)[O-])cc1 | µM | 12.7 |
| O=C1NC(=S)S/C1=C\C(Cl)=C\c1ccc([N+](=O)[O-])cc1 | µM | 8.08 |
| O=C1/C(=C/C(Cl)=C/c2ccc([N+](=O)[O-])cc2)SC(=S)N1c1ccc(O)cc1 | µM | 41.8 |

Query: Return reported TGI for target or system OVCAR-3, item `O=C(O)CCN1C(=O)/C(=C/C(Cl)=C/c2ccc([N+](=O)[O-])cc2)SC1=S` .
Result: 6.05

Query: Return reported TGI for target or system OVCAR-3, item O=C(O)C(Cc1ccccc1)N1C(=O)/C(=C/C(Cl)=C/c2ccc([N+](=O)[O-])cc2)SC1=S (centres unmarked) .
Result: 3.51

---

- System: NCI-H23
- recorded conditions: NCI-H23 (Non-Small Cell Lung Cancer), 48 h, SRB
quantity: TGI (µM)
A number alone suffices; assume µM.

Below: 4 molecules and their reported TGI.
| molecule | TGI (µM) |
| --- | --- |
| O=C1NC(=S)S/C1=C\C(Cl)=C\c1ccc([N+](=O)[O-])cc1 | 13.4 |
| O=C(O)C(Cc1ccccc1)N1C(=O)/C(=C/C(Cl)=C/c2ccc([N+](=O)[O-])cc2)SC1=S (centres unmarked) | 4.86 |
| O=C1/C(=C/C(Cl)=C/c2ccc([N+](=O)[O-])cc2)SC(=S)N1/N=C\C(Cl)=C\c1ccc([N+](=O)[O-])cc1 | 31.6 |
| O=C(O)CCN1C(=O)/C(=C/C(Cl)=C/c2ccc([N+](=O)[O-])cc2)SC1=S | 3.22 |

Now for another entry.
Query: Return reported TGI for target or system NCI-H23, item `O=C1/C(=C/C(Cl)=C/c2ccc([N+](=O)[O-])cc2)SC(=S)N1c1ccc(O)cc1` .
Result: 3.11

---

// values below are reported GI50 at 48 h
- assay summary: in vitro
- recorded conditions: human
A number alone suffices; assume µM.

| molecule | GI50 at 48 h (µM) |
| --- | --- |
| O=C/C(Cl)=C/c1ccc([N+](=O)[O-])cc1 [Ciminalum, reference compound] | 10.4 |

Query: Find the measured GI50 at 48 h of `O=C(O)CCN1C(=O)/C(=C/C(Cl)=C/c2ccc([N+](=O)[O-])cc2)SC1=S` and report it.
Result: 54.5

Query: Find the measured GI50 at 48 h of O=C(O)C(Cc1ccccc1)N1C(=O)/C(=C/C(Cl)=C/c2ccc([N+](=O)[O-])cc2)SC1=S (centres unmarked) and report it.
Result: 49

---

// GI50 collected for HOP-62
A number alone suffices; assume µM.

Below: 3 molecules and their reported GI50.
| molecule | units | reading |
| --- | --- | --- |
| O=C1/C(=C/C(Cl)=C/c2ccc([N+](=O)[O-])cc2)SC(=S)N1/N=C\C(Cl)=C\c1ccc([N+](=O)[O-])cc1 | µM | 17.2 |
| O=C1NC(=S)S/C1=C\C(Cl)=C\c1ccc([N+](=O)[O-])cc1 | µM | 15.4 |
| O=C(O)C(Cc1ccccc1)N1C(=O)/C(=C/C(Cl)=C/c2ccc([N+](=O)[O-])cc2)SC1=S (centres unmarked) | µM | 2.31 |

Query: Return reported GI50 for target or system HOP-62, item `O=C(O)CCN1C(=O)/C(=C/C(Cl)=C/c2ccc([N+](=O)[O-])cc2)SC1=S` .
Result: 6.54

Query: Return reported GI50 for target or system HOP-62, item `O=C1/C(=C/C(Cl)=C/c2ccc([N+](=O)[O-])cc2)SC(=S)N1c1ccc(O)cc1` .
Result: 2.61

---

- System: CNS Cancer subpanel
- assay summary: cells
- recorded conditions: CNS Cancer panel mean
quantity: MG_MID, TGI
Output should be the measured figure followed by the unit it is expressed in.

| smiles entry | reading |
| --- | --- |
| O=C1NC(=S)S/C1=C\C(Cl)=C\c1ccc([N+](=O)[O-])cc1 | 22.4 µM |
| O=C1/C(=C/C(Cl)=C/c2ccc([N+](=O)[O-])cc2)SC(=S)N1/N=C\C(Cl)=C\c1ccc([N+](=O)[O-])cc1 | 52.1 µM |
| O=C(O)CCN1C(=O)/C(=C/C(Cl)=C/c2ccc([N+](=O)[O-])cc2)SC1=S | 17.7 µM |

Now for another entry.
Query: Return reported MG_MID, TGI for target or system CNS Cancer subpanel, item `O=C1/C(=C/C(Cl)=C/c2ccc([N+](=O)[O-])cc2)SC(=S)N1c1ccc(O)cc1` .
Result: 30.6 µM
